test system: measles; assay: Measles virus inhibition of viral CPE in BSC-1 cells; format: cell-based; settings: Measles morbillivirus, BSC-1; Table II footnote g; read-out: Others EC50, against measles
quantity-measured: EC50 (nM)
Use nM as the unit, but write only the number.

Lookup: State EC50 on measles. Entry: CCCc1cc(=O)oc2c3c(c4c(c12)OC(C)(C)C=C4)O[C@H](C)[C@@H](C)C3=O [(+)-7]
Found: 3000

* * *

Let's look at some compounds and their measured VZV EC50.
tested on: VZV; assay: VZV plaque reduction assay in human foreskin fibroblast cells; format: cell-based, varicella zoster virus; settings: Table II

Example results:
1) CCCc1cc(=O)oc2c3c(c4c(c12)OC(C)(C)CC4)OC(C)C(C)C3=O (racemic) [(±)-18a]: 15.4 µg/mL
2) CCCc1cc(=O)oc2c3c(c4c(c12)OC(C)(C)C=C4)OC(CC)C(C)C3=O (racemic) [(±)-15c]: >20 µg/mL
3) CC1Oc2c3c(c4c(-c5ccccc5)cc(=O)oc4c2C(O)C1C)OC(C)(C)C=C3 (single isomer, unassigned; (-)) [(−)-24]: >4.0 µg/mL

Lookup: For VZV, give VZV EC50 of the listed compound: CCCc1cc(=O)oc2c3c(c4c(c12)OC(C)(C)C=C4)OC(C(C)C)C(C)C3=O (racemic) [(+)-15e]
Found: >100 µg/mL

Lookup: Output reported VZV EC50 of the compound CCCc1cc(=O)oc2c3c(c4c(c12)OC(C)(C)C=C4)OCC(C)C3=O (racemic) [(±)-15f] on VZV.
Found: >20 µg/mL

Lookup: State, for VZV, measured VZV EC50 of the compound listed here: CCCc1cc(=O)oc2c3c(c4c(c12)OC(C)(C)CC4)OC(C)C(C)C3O (single isomer, unassigned; (-)) [(−)-23]
Found: >4.0 µg/mL

Lookup: Jot down VZV EC50 (VZV) of CCCc1cc(=O)oc2c3c(c4c(c12)OC(C)(C)C=C4)OC(C)C(C)C3=O (racemic) [(±)-7a] .
Found: 13.7 µg/mL

Lookup: Report VZV EC50 from VZV testing of CCCc1cc(=O)oc2c3c(c4c(c12)OC(C)(C)CC4)OC(C)C(C)C3=O (single isomer, unassigned; (+)) [(+)-18a]
Found: >100 µg/mL

Lookup: GET VZV EC50 where system = VZV and item = CCCc1cc(=O)oc2c3c(c4c(c12)OC(C)(C)C=C4)O[C@@H](C)[C@H](C)[C@@H]3O [(−)-calanolide B, (-)-Calanolide B]
Found: >4.0 µg/mL

* * *

system: 2.2.15 cells; test: Toxicity in 2.2.15 cells, neutral red dye uptake; type: cell-based, human; details: Table II; read-out: HBV IC50
Entries annotated with measured pIC50
Conceptually, pIC50 converts a concentration in mol/L into minus its log10.

1) CCCc1cc(=O)oc2c3c(c4c(c12)OC(C)(C)CC4)OC(C)C(C)C3=O (racemic) [(±)-18a]: 4.06
2) CC1Oc2c3c(c4c(-c5ccccc5)cc(=O)oc4c2C(O)C1C)OC(C)(C)C=C3 (single isomer, unassigned; (-)) [(−)-24]: 3.82
3) CCCc1cc(=O)oc2c3c(c4c(c12)OC(C)(C)C=C4)OCC(C)C3=O (racemic) [(±)-15f]: 3.57

Lookup: Please report pIC50 for the following compound: CCCc1cc(=O)oc2c3c(c4c(c12)OC(C)(C)C=C4)OC(C)C(C)C3=O (single isomer, unassigned; (-)) [(−)-7]
Found: 3.49

Lookup: // fetch pIC50 given entry CCCc1cc(=O)oc2c3c(c4c(c12)OC(C)(C)CC4)OC(C)C(C)C3=O (single isomer, unassigned; (+)) [(+)-18a]
Found: 4.06

Lookup: Item CCCc1cc(=O)oc2c3c(c4c(c12)OC(C)(C)CC4)OC(C)C(C)C3O (single isomer, unassigned; (-)) [(−)-23] : provide pIC50
Found: 3.47
